test system: HT-29; experiment: NCI tumour cell line growth inhibition, 48 h
Activity calls are given as the source filed them. No stated cut-off is given here; in the data, active = GI50 up to about 1.1 µM and inactive = higher.
Pick one and only one: 1.0 = active, 0.0 = inactive

Some entries whose results are on file:
Call for entry Cc1cccc(NC(=O)/C(=N\N)C(c2cnc3ccc([N+](=O)[O-])cc3n2)[N+](=O)[O-])c1C (stereo not given) : 0.0

Hi, sorry to bother you, what did the test record for COc1cc2c(cc1O)CCN[C@@]21CS[C@H]2c3c(OC(C)=O)c(C)c4c(c3C(COC1=O)N1C2C2c3c(cc(C)c(OC)c3O)CC([C@@H]1O)N2C)OCO4 (stereo not given in full) ? 1.0

Hey, what did the test say about "O=c1[nH]c(=O)n([C@H]2C[C@@H](CO)[C@@H](O)C2)cc1I" ? 0.0

So what was the verdict on "Nc1ccc2nc3n(c2c1)C(=O)c1ccccc1-3" in this test? 0.0

Others:
Could you please tell me the result logged for "CCC/N=C/c1cc(Cc2ccc(O)c(/C=N/CCC)c2)ccc1O" in this assay? 0.0

---

Each entry below lists one item and its recorded GI50 value.
test system: OVCAR-5; experiment: NCI tumour cell line growth inhibition, 48 h
Calls of active or inactive are those of the source. Cut-off read from the data, not from the text of the source: active = GI50 up to about 1.1 µM and inactive = higher.

Requested read-out GI50, target or system OVCAR-5, entry "O=[N+]([O-])c1ccc(NC(=S)Nc2ccccn2)cc1" 27.7 µM (inactive)

API: value(readout=GI50, system=OVCAR-5) for record "COc1cccc(/C=N/n2c(C)n[nH]c2=O)c1" > 100 µM (inactive)

I'm curious: which GI50 was measured for "O=C(/C=C/c1ccccc1Cl)c1ccc(Cl)c(Cl)c1" tested on OVCAR-5? 17.6 µM (inactive)

Tell me reported GI50 for "COCCCNc1nc(N)c(C#N)c(C#N)c1C#N" , tested with OVCAR-5. > 10 µM (inactive)

Write down the reported GI50 of "CN1Cc2cc3cc4c(cc3nc2N(C)C1)OCCO4" , test system: OVCAR-5. > 100 µM (inactive)

Quick check: GI50 on OVCAR-5, item "O=S(=O)(O)c1cc(O)c(/N=N/c2ccc(O)cc2O)c2ccccc12" ? 46.8 µM (inactive)

---

test system: HCC 2998; assay: NCI tumour cell line growth inhibition, 48 h
Calls of active or inactive are those of the source. Cut-off read from the data, not from the text of the source: active = GI50 up to about 1.1 µM and inactive = higher.
As shown below, each of these molecules has a reported GI50 value.

Which GI50 reading was recorded for the molecule "CC1=CC(=O)N(n2c(-c3ccccc3)n[nH]c2=O)C1=O" ? > 100 µM (inactive)

Data request, read-out GI50, for "O=C(CCc1nnc2s/c(=C\c3ccc(Cl)c(Cl)c3)c(=O)n12)Nc1ccc(Cl)c(Cl)c1" > 100 µM (inactive)

Others:
Endpoint output: GI50 of "C[Si](C)(C)c1ccc(-c2sc(-c3ccc([Si](C)(C)C)s3)c3c2C[Si]2(C3)Cc3c(-c4ccc([Si](C)(C)C)s4)sc(-c4ccc([Si](C)(C)C)s4)c3C2)s1" . Value? > 100 µM (inactive)

Returns the measured GI50 for the input molecule. Input: "CCCc1cc(OC(=O)c2c(O)cc(OC)cc2CCC)cc(O)c1C(=O)O" 25.2 µM (inactive)

Request the reported GI50 associated with N#CC(C#N)=C1NC(=O)C(c2ccccc2)C(=O)N1 (centres undefined) > 100 µM (inactive)

Which GI50 value belongs to "O=C1/C(=C/c2ccc(Cl)c(Cl)c2)CN(C(=O)CCN2CCOCC2)C/C1=C\c1ccc(Cl)c(Cl)c1" ? 2.09 µM (inactive)

Param item = "COC(=O)c1cc(NC(=O)Cc2c[nH]c3ccccc23)cn1C" ; retrieve measured GI50. 68.1 µM (inactive)

Find the recorded GI50 belonging to NC1=NN(c2ccccc2)C(=O)C1/C(=N\NC(=O)c1cc2ccccc2cc1O)C(=O)Nc1nc([N+](=O)[O-])cs1 (centres undefined) and report it. 40.2 µM (inactive)

Given the molecule "COc1ccccc1-c1nc(-c2ccccc2O)n[nH]1" , what is its reported GI50? > 100 µM (inactive)

---

system: TK-10; test: NCI tumour cell line growth inhibition, 48 h
Calls of active or inactive are those of the source. Cut-off read from the data, not from the text of the source: active = GI50 up to about 1.1 µM and inactive = higher.
Endpoint label: GI50

Below are worked cases with known answers.
Requested read-out GI50, target or system TK-10, entry CO[C@@H](C(=O)OC1C=CC2(CC1)C(=O)N(C)c1ccccc12)c1ccccc1 (some centres not stated) > 100 µM (inactive)

Param readout = GI50; param system = TK-10; param query = O=C1CSC(c2ccccc2[N+](=O)[O-])N1c1ccc(-c2ccc(-n3c(-c4ccccc4)nc4ccccc4c3=O)cc2)cc1 (configuration not stated) ; response: value > 100 µM (inactive)

Lab note: need GI50 for COc1cc2nc3n(c2cc1OC)C(O)c1c(Cl)nc(SC)nc1S3 (configuration not stated) on TK-10, anyone have it? 5.46 µM (inactive)

***
Param readout= GI50; system= TK-10; entry= "COc1ccc(OC)c(/C=N/N=C2\C(=O)Nc3c(Cl)cc(Cl)cc32)c1" ; returns value. > 100 µM (inactive)

---

tested on: Malme-3M; test: NCI tumour cell line growth inhibition, 48 h
Active and inactive are the calls of the source. No stated cut-off is given here; in the data, active = GI50 up to about 1.1 µM and inactive = higher.
Valid outcomes are listed here; reply with one: 1 for active, -1 for inactive

// return assay outcome for Cc1cccc(C)c1NC(=O)/C(=N/NC(N)=S)C(C)C(=O)c1ccc(Cl)cc1 (stereo unspecified) -1

I would be grateful if you could indicate the recorded call for "Oc1ccc(Cc2nccc3cc(O)c(O)cc23)cc1O" . -1

Name the outcome recorded for COc1ccc(C2SCC(=O)N2c2ccc(-c3ccc(-n4c(-c5ccccc5)nc5ccccc5c4=O)cc3)cc2)cc1 (stereo unspecified) in the assay. -1

Could you please tell me the result logged for "S=C(N/N=C\C=N/NC(=S)N1CCCCC1)N1CCCCC1" in this assay? 1

What outcome does the record of this test show for "COC(=O)c1ccccc1Nc1nc(-c2cccs2)nc2cc(OC)c(OC)cc12" ? -1

Others:
Outcome logged for "COC(=O)CC1(O)C=CC(=O)C=C1" in this assay: -1

Any idea what this test logged for CCOC(=O)CC(C)C1(C=O)CCCCC1=O (stereo unspecified) ? -1

Per the assay record, what outcome was assigned to "C/C(=N\NC(N)=S)c1ccc(C2CCCCC2)cc1" ? -1

Tell me the assay call for "CCN(CC)CC[n+]1ccc2c(C)c3[nH]c4ccc(O)cc4c3c(C)c2c1" please. -1

Write down the call the test reported for this compound. Item: "O=S(=O)(O)c1cc(O)c(/N=N/c2ccc(O)cc2O)c2ccccc12" -1

Any idea what this test logged for "Cc1cs/c(=N\C(P(=O)(O)O)P(=O)(O)O)n1C" ? -1

---

test system: SK-MEL-5; experiment: NCI tumour cell line growth inhibition, 48 h
Where a name gives a salt, the structure may show the parent alone. Calls of active or inactive are those of the source. Cut-off read from the data, not from the text of the source: active = GI50 up to about 1.1 µM and inactive = higher.
Returns: one label drawn from 1.0 for active, 0.0 for inactive

Here's what some known entries look like.
Which result was noted for this molecule in the test: COc1ccc(OC2OC(CO)C(O)C(O)C2O)cc1 (stereo not drawn) 0.0

// param item: "CCOC(=O)c1[nH]cc(C)c1-c1cccn1-c1ccc(Cl)cc1[N+](=O)[O-]" ; yields the recorded call 0.0

Each molecule tested received a call. Report the one for "CC(C)=CCOc1ccc(-c2coc3cc4c(c(O)c3c2=O)C=CC(C)(C)O4)cc1" . 1.0

// return assay outcome for "COc1cccc(Nc2nc(C)c([N+](=O)[O-])c(Nc3cccc(OC)c3)n2)c1" 0.0

Which outcome was assigned to "O=[PH](O)c1cc2c3ccccc3ccc2c2ccccc12" in this test? 0.0

Further cases:
Which outcome did this test record for the molecule "Nc1ccc(C(=O)N2CCC[C@H]2CO)c(N)c1" ? 0.0

How was "Cc1ccc2c(c1)CNc1ccc(C)cc1CN2" classified in this test? 0.0

Look up the recorded call for "CC(C)=CCC/C(C)=C\CC/C(C)=C/CO" in this test. 0.0

For CC(NC(C)(C)C)C(=O)c1cccc(Cl)c1 (stereo not drawn) [BUPROPION HYDROCHLORIDE] , which call appears in the assay record? 0.0

// outcome(item) with item = "COC(=O)C(Cc1ccc2c(c1)CCC2)Cc1ccc2c(c1)CCC2" 0.0

Dear colleague, could you share the recorded outcome for "CCOC(=O)Nc1ccc2c(c1)N(C(=O)CCN(CC)CC)c1ccccc1S2" when you have a moment? 0.0

Answer briefly: the call reported for CC1CC(C2=CC=CCS2)=Nc2ccccc2S1 (stereo not drawn) in this assay. 0.0

Answer briefly: the call reported for O=C(C1OC1c1ccc(F)cc1)C12CC3CC(CC(C3)C1)C2 (stereo not drawn) in this assay. 0.0

Write down the call the test reported for this molecule. Item: "CON(C)c1nc(N(C)OC)nc(N(C)OC)n1" 0.0

Name the outcome recorded for CC1=C2C(O)C(C(C)C(=O)NC(C)C)CCC2(C)C=CC1=O (stereo not drawn) in the assay. 0.0

Tell me the recorded outcome of this test for CCOC(=O)C1CC(=O)C=C2CCCCC21 (stereo not drawn) . 0.0

Would you mind telling me which call this test gave "O=S(=O)(O)n1ccnc1" ? 0.0
